The reported measurements were obtained from patent US11685747B2.

Target or test system: Mcl-1/Bak protein-protein interactions (Homo sapiens, UniProt Q07820)
Sequence (Q07820 whole entry): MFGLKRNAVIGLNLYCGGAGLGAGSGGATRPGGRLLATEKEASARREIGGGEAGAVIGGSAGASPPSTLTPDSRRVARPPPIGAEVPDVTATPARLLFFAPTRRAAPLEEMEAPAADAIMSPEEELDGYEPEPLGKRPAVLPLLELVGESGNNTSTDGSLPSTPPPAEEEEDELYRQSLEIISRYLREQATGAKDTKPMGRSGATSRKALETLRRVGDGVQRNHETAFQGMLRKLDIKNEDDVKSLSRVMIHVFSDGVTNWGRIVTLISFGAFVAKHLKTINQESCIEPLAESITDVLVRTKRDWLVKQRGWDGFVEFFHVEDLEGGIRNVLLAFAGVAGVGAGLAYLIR
Assay method text: Cell-based split luciferase complementation assay
Experimental setup: HEK 293 M cells, serum-free, 4 h
pIC50: −log10 of the molar value.
Below: a set of entries, each annotated with reported pIC50.
Readout name: pIC50

compound="C[C@H]1C/C=C/[C@H](O)[C@@H]2CC[C@H]2CN2C[C@@]3(CCCc4cc(Cl)ccc43)COc3ccc(cc32)C(=O)NS(=O)(=O)[C@@H]1CC1CC1 (single isomer, unassigned) [Example 58]" numeric_readout=7.32
compound="C[C@H]1C/C=C/[C@H](O)[C@@H]2CC[C@H]2CN2C[C@@]3(CCCc4cc(Cl)ccc43)COc3ccc(cc32)C(=O)NS(=O)(=O)[C@@H]1C1CCC1 (single isomer, unassigned) [Example 55]" numeric_readout=6.06
compound="CC(C)[C@@H]1[C@H](C)C/C=C/[C@H](O)[C@@H]2CC[C@H]2CN2C[C@@]3(CCCc4cc(Cl)ccc43)COc3ccc(cc32)C(=O)NS1(=O)=O (single isomer, unassigned) [Example 52]" numeric_readout=6.85
compound="CC(C)[C@@H]1[C@H](C)C/C=C/[C@H](O)[C@@H]2CC[C@H]2CN2C[C@@]3(CCCc4cc(Cl)ccc43)COc3ccc(cc32)C(=O)NS1(=O)=O (single isomer, unassigned) [Example 49]" numeric_readout=7.34
compound="C[C@H]1C/C=C/[C@H](O)[C@@H]2CC[C@H]2CN2C[C@@]3(CCCc4cc(Cl)ccc43)COc3ccc(cc32)C(=O)NS(=O)(=O)C1 (single isomer, unassigned)" numeric_readout=6.34

###

Target or test system: recombinant human Mcl-1 (Homo sapiens, UniProt Q07820)
Construct: C-terminally 6×His tagged Mcl-1 containing residues 171-327
Sequence (Q07820 171-327): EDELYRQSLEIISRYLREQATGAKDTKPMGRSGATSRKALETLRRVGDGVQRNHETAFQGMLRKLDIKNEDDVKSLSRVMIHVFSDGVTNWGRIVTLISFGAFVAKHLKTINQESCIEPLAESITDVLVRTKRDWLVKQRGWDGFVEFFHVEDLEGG
Assay method text: Cell free Mcl-1:Bim affinity assay (Mcl-1 HTRF, TR-FRET)
Experimental setup: inhibition of Mcl-1/Bim interaction
pIC50: −log10 of the molar value.
Readout name: pIC50

compound="CC(C)O[C@H]1/C=C/C[C@H](C)[C@@H](C)S(=O)(=O)NC(=O)c2ccc3c(c2)N(C[C@@H]2CC[C@H]21)C[C@@]1(CCCc2cc(Cl)ccc21)CO3 [Example 43]" numeric_readout=8.76
compound="CC1(C)C/C=C/[C@H](O)[C@@H]2CC[C@H]2CN2C[C@@]3(CCCc4cc(Cl)ccc43)COc3ccc(cc32)C(=O)NS(=O)(=O)C1 [Example 1]" numeric_readout=9.07
compound="C[C@@H]1C/C=C/[C@H](O)[C@@H]2CC[C@H]2CN2C[C@@]3(CCCc4cc(Cl)ccc43)COc3ccc(cc32)C(=O)NS(=O)(=O)[C@H]1CC1CCC1 (single isomer, unassigned) [Example 63]" numeric_readout=9.37
compound="C[C@H]1C/C=C/[C@H](O)[C@@H]2CC[C@H]2CN2C[C@@]3(CCCc4cc(Cl)ccc43)COc3ccc(cc32)C(=O)NS(=O)(=O)C1 (single isomer, unassigned) [Example 29]" numeric_readout=8.03
compound="C[C@H]1C/C=C/[C@H](O)[C@@H]2CC[C@H]2CN2C[C@@]3(CCCc4cc(Cl)ccc43)COc3ccc(cc32)C(=O)NS(=O)(=O)[C@@H]1CC1CC1 (single isomer, unassigned) [Example 59]" numeric_readout=9.31
compound="CC1(C)CC/C=C/[C@H](O)[C@@H]2CC[C@H]2CN2C[C@@]3(CCCc4cc(Cl)ccc43)COc3ccc(cc32)C(=O)NS1(=O)=O (single isomer, unassigned) [Example 40]" numeric_readout=8.11
compound="C[C@H]1C/C=C/[C@H](O)[C@@H]2CC[C@H]2CN2C[C@@]3(CCCc4cc(Cl)ccc43)COc3ccc(cc32)C(=O)NS(=O)(=O)[C@@H]1C1CC1 (single isomer, unassigned) [Example 46]" numeric_readout=9.14
compound="C[C@H]1C/C=C/[C@H](O)[C@@H]2CC[C@H]2CN2C[C@@]3(CCCc4cc(Cl)ccc43)COc3ccc(cc32)C(=O)NS(=O)(=O)[C@@H]1C1CCC1 (single isomer, unassigned) [Example 55]" numeric_readout=7.82
compound="CC[C@H]1CCCC[C@H](O)[C@@H]2CC[C@H]2CN2C[C@@]3(CCCc4cc(Cl)ccc43)COc3ccc(cc32)C(=O)NS1(=O)=O [Example 23]" numeric_readout=8.43
compound="CO[C@H]1/C=C/C[C@H](C)[C@@H](C2CC2)S(=O)(=O)NC(=O)c2ccc3c(c2)N(C[C@@H]2CC[C@H]21)C[C@@]1(CCCc2cc(Cl)ccc21)CO3 [Example 48]" numeric_readout=8.41

###

Target or test system: recombinant human Mcl-1 (Homo sapiens)
Construct: C-terminally 6×His tagged Mcl-1 containing residues 171-327
Assay method text: Cell free Mcl-1:Bim affinity assay (Mcl-1 HTRF, TR-FRET)
Experimental setup: inhibition of Mcl-1/Bim interaction
Procedure: Cell Free Mcl-1:Bim Affinity Assay (Mcl-1 HTRF) The inhibition of the Mcl-1/Bim interaction was measured using a time-resolved fluorescence resonance energy transfer (TR-FRET) assay. […] A biotinylated peptide derived from human Bim (residues 51-76) was purchased from CPC Scientific (San Jose, Calif.). […] The reaction plates were further incubated overnight and then were read on an Envision® multimode reader (PerkinElmer). […]
# IC50 annotations
Readout name: IC50 (nM)

molecule=CO[C@H]1CCCC[C@@H](C)S(=O)(=O)NC(=O)c2ccc3c(c2)N(C[C@@H]2CC[C@H]21)C[C@@]1(CCCc2cc(Cl)ccc21)CO3 readout_name=IC50 numeric_readout=2.08
molecule="C[C@H]1C/C=C/[C@H](O)[C@@H]2CC[C@H]2CN2C[C@@]3(CCCc4cc(Cl)ccc43)COc3ccc(cc32)C(=O)NS(=O)(=O)[C@@H]1CC1CC1 (single isomer, unassigned) [Example 58]" readout_name=IC50 numeric_readout=0.917
molecule=C[C@@H]1[C@@H](C)CCC[C@H](O)[C@@H]2CC[C@H]2CN2C[C@@]3(CCCc4cc(Cl)ccc43)COc3ccc(cc32)C(=O)NS1(=O)=O readout_name=IC50 numeric_readout=0.447

###

The entries below are paired with their reported pIC50.
Target or test system: recombinant human Mcl-1 (Homo sapiens)
Construct: C-terminally 6×His tagged Mcl-1 containing residues 171-327
Assay method text: Cell free Mcl-1:Bim affinity assay (Mcl-1 HTRF, TR-FRET)
Experimental setup: inhibition of Mcl-1/Bim interaction
pIC50: −log10 of the molar value.
Readout name: pIC50

molecule="C[C@H]1C/C=C/[C@H](O)[C@@H]2CC[C@H]2CN2C[C@@]3(CCCc4cc(Cl)ccc43)COc3ccc(cc32)C(=O)NS(=O)(=O)[C@@H]1C1CCC1 (single isomer, unassigned) [Example 56]" numeric_readout=9.54
molecule="CC(C)C[C@@H]1[C@@H](C)C/C=C/[C@H](O)[C@@H]2CC[C@H]2CN2C[C@@]3(CCCc4cc(Cl)ccc43)COc3ccc(cc32)C(=O)NS1(=O)=O (single isomer, unassigned) [Example 65]" numeric_readout=8.28
molecule="C[C@@H]1C/C=C/[C@H](O)[C@@H]2CC[C@H]2CN2C[C@@]3(CCCc4cc(Cl)ccc43)COc3ccc(cc32)C(=O)NS(=O)(=O)[C@H]1CC1CCC1 (single isomer, unassigned) [Example 64]" numeric_readout=7.86
molecule="CCC[C@@H]1[C@@H](C)C/C=C/[C@H](O)[C@@H]2CC[C@H]2CN2C[C@@]3(CCCc4cc(Cl)ccc43)COc3ccc(cc32)C(=O)NS1(=O)=O (single isomer, unassigned) [Example 68]" numeric_readout=9.30
molecule="C[C@H]1C/C=C/[C@H](O)[C@@H]2CC[C@H]2CN2C[C@@]3(CCCc4cc(Cl)ccc43)COc3ccc(cc32)C(=O)NS(=O)(=O)[C@@H]1C1CC1 (single isomer, unassigned) [Example 47]" numeric_readout=9.60
molecule="CC(C)[C@@H]1[C@H](C)C/C=C/[C@H](O)[C@@H]2CC[C@H]2CN2C[C@@]3(CCCc4cc(Cl)ccc43)COc3ccc(cc32)C(=O)NS1(=O)=O (single isomer, unassigned) [Example 50]" numeric_readout=8.99
molecule="C[C@H]1C/C=C/[C@H](O)[C@@H]2CC[C@H]2CN2C[C@@]3(CCCc4cc(Cl)ccc43)COc3ccc(cc32)C(=O)NS(=O)(=O)[C@@H]1CC1CC1 (single isomer, unassigned) [Example 60]" numeric_readout=9.29
molecule="CO[C@H]1/C=C/CC[C@@H](C)S(=O)(=O)NC(=O)c2ccc3c(c2)N(C[C@@H]2CC[C@H]21)C[C@@]1(CCCc2cc(Cl)ccc21)CO3 [Example 13]" numeric_readout=9.36
molecule="CO[C@H]1/C=C/CCCS(=O)(=O)NC(=O)c2ccc3c(c2)N(C[C@@H]2CC[C@H]21)C[C@@]1(CCCc2cc(Cl)ccc21)CO3 [Example 9]" numeric_readout=8.91
molecule="CC[C@@H]1CC/C=C/[C@H](OCCOC)[C@@H]2CC[C@H]2CN2C[C@@]3(CCCc4cc(Cl)ccc43)COc3ccc(cc32)C(=O)NS1(=O)=O [Example 75]" numeric_readout=8.55
molecule="C[C@@H]1CCC[C@H](O)[C@@H]2CC[C@H]2CN2C[C@@]3(CCCc4cc(Cl)ccc43)COc3ccc(cc32)C(=O)NS(=O)(=O)[C@@H]1C (single isomer, unassigned) [Example 35]" numeric_readout=9.02
molecule="CC[C@@H]1C/C=C/[C@H](O)[C@@H]2CC[C@H]2CN2C[C@@]3(CCCc4cc(Cl)ccc43)COc3ccc(cc32)C(=O)NS(=O)(=O)C1 (single isomer, unassigned) [Example 33]" numeric_readout=8.15
molecule="CC[C@@H]1[C@@H](C)C/C=C/[C@H](OC)[C@@H]2CC[C@H]2CN2C[C@@]3(CCCc4cc(Cl)ccc43)COc3ccc(cc32)C(=O)NS1(=O)=O [Example 25]" numeric_readout=9.27
molecule="CC1(C)CCCC[C@H](O)[C@@H]2CC[C@H]2CN2C[C@@]3(CCCc4cc(Cl)ccc43)COc3ccc(cc32)C(=O)NS1(=O)=O [Example 42]" numeric_readout=8.12
molecule="CCCCO[C@H]1/C=C/C[C@H](C)[C@@H](C)S(=O)(=O)NC(=O)c2ccc3c(c2)N(C[C@@H]2CC[C@H]21)C[C@@]1(CCCc2cc(Cl)ccc21)CO3 [Example 73]" numeric_readout=9.44
molecule="C[C@H]1C/C=C/[C@H](O)[C@@H]2CC[C@H]2CN2C[C@@]3(CCCc4cc(Cl)ccc43)COc3ccc(cc32)C(=O)NS(=O)(=O)[C@@H]1CC1CC1 (single isomer, unassigned) [Example 61]" numeric_readout=8.57
molecule="CC[C@H]1C/C=C/[C@H](O)[C@@H]2CC[C@H]2CN2C[C@@]3(CCCc4cc(Cl)ccc43)COc3ccc(cc32)C(=O)NS(=O)(=O)C1 (single isomer, unassigned) [Example 34]" numeric_readout=9.36
molecule="CO[C@H]1/C=C/C[C@H](C)CS(=O)(=O)NC(=O)c2ccc3c(c2)N(C[C@@H]2CC[C@H]21)C[C@@]1(CCCc2cc(Cl)ccc21)CO3 (single isomer, unassigned) [Example 31]" numeric_readout=8.24
molecule="CC[C@@H]1[C@@H](C)C/C=C/[C@H](O)[C@@H]2CC[C@H]2CN2C[C@@]3(CCCc4cc(Cl)ccc43)COc3ccc(cc32)C(=O)NS1(=O)=O (single isomer, unassigned) [Example 24]" numeric_readout=9.82
molecule="CCC[C@@H]1[C@@H](C)C/C=C/[C@H](O)[C@@H]2CC[C@H]2CN2C[C@@]3(CCCc4cc(Cl)ccc43)COc3ccc(cc32)C(=O)NS1(=O)=O (single isomer, unassigned) [Example 69]" numeric_readout=8.06
molecule="CCC[C@@H]1[C@@H](C)C/C=C/[C@H](O)[C@@H]2CC[C@H]2CN2C[C@@]3(CCCc4cc(Cl)ccc43)COc3ccc(cc32)C(=O)NS1(=O)=O [Example 70]" numeric_readout=9.19
molecule="O=C1NS(=O)(=O)CCC/C=C/[C@H](O)[C@@H]2CC[C@H]2CN2C[C@@]3(CCCc4cc(Cl)ccc43)COc3ccc1cc32 [Example 8]" numeric_readout=9.01
